assay: AUC (0-infinity) in female Beagle dog at 1 mg/kg,iv measured upto 24 hrs; type: ADME, organism-based, Canis lupus familiaris; design: dose 1 mg/kg, time < 24 hrs, route iv; settings: in vivo
attribute measured: AUC(0-inf) (ng·h/mL)
The reply should contain only the number, in ng·h/mL.

Problem: # lookup: AUC(0-inf) of CC(=O)O[C@@]12CO[C@@H]1C[C@H](O)[C@@]1(C)C(=O)[C@H](O)C3=C(C)[C@@H](OC(=O)[C@H](OC(=O)CCC(=O)NCCCC[C@H](NC(=O)CC[C@@H](NC(=O)[C@H](C)NC(=O)/C=C/c4ccc(F)cc4Cl)C(N)=O)C(=O)O)[C@@H](NC(=O)OC(C)(C)C)c4ccccc4)C[C@@](O)([C@@H](OC(=O)c4ccccc4)[C@H]21)C3(C)C
Result: 1640
